B1: INTS4 (parent)
chain: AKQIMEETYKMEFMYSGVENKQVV

variants of: B1; experiment: protein stability index of a GFP-peptide fusion (GPS, HEK-293T) (PSI 1-6); higher = more stable; conditions: c terminus: a fixed tail appended;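 further: lentivirally expressed fusions sorted by FACS into six bins by GFP to DsRed ratio, PSI derived from sequencing read proportions per bin multiplied by bin number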
Field: protein stability index. Provide a value for each of the variants that follow.
Keep it simple and answer with nothing but the number.

Record AKQIMEETYKMEFWYSGVENKQVV [M14W] . Reported protein stability index: 2.02

Record AKQIMEETYKMEFMYSGVENKHVV [Q22H] . Reported protein stability index: 1.98

Record AKQIMEETYKMEFMYNGVENKQVV [S16N] . Reported protein stability index: 1.98
